Data provenance: patent US11180504B2

// reported MIC for each item listed
Test system: carbapenemase producing K. pneumoniae
assayText: MIC by broth micro-dilution (CLSI), carbapenemase producing K. pneumoniae
Type: cell-based, Klebsiella pneumoniae
testContext: Klebsiella pneumoniae, ATCCBAA1705, KPC-2 K. pneumoniae ATCC BAA-1705; read-out: MIC
Entry rule: numbers only, all in µg/mL.

These solved cases illustrate the format of a correct answer.
C[C@@H](NC(=O)C(F)F)[C@H]1C(=O)N2C(C(=O)O)=C(S[C@@H]3CN[C@H](C(=O)N4C[C@@H](O)[C@@H](N)C4)C3)[C@H](C)[C@H]12: 4
CCCCS(=O)(=O)N[C@H](C)[C@H]1C(=O)N2C(C(=O)O)=C(S[C@@H]3CN[C@H](C(=O)N(C)C)C3)[C@H](C)[C@H]12: 8
C[C@@H](NC(=O)CNC(=N)N)[C@H]1C(=O)N2C(C(=O)O)=C(S[C@@H]3CN[C@H](C(=O)N4CC[C@@H](N)C4)C3)[C@H](C)[C@H]12: 2

// fetch MIC given entry `C[C@@H](NC(=O)CO)[C@H]1C(=O)N2C(C(=O)O)=C(S[C@@H]3CN[C@H](C(=O)N(C)C)C3)[C@H](C)[C@H]12`
64
